Every entry's value here was drawn from patent US10604526B2.

tested-target: UniProtKB P51679
Sequence (P51679 1-360): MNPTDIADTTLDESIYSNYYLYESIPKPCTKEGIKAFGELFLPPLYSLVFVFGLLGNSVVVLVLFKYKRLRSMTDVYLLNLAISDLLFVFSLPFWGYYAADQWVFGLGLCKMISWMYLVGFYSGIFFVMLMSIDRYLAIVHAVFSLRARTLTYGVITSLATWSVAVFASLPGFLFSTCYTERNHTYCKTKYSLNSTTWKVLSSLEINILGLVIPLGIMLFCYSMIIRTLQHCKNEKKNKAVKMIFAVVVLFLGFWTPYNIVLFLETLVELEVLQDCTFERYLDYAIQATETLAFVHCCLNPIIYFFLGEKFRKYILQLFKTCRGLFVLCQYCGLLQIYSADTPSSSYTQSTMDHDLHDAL
experiment-description: Calcium flux assay
condition-label: Chem5-hCCR4 cells, CCL22 at EC80 of 1.5 nM, FLIPR Calcium 6 dye; read-out: Potency (IC50)
IC50 values by entry

Reference set (5 entries):
compound	tested-target	IC50
Cc1nn([C@H](C)c2ccc(Cl)cc2Cl)c2nc(N3CC([C@@H]4CCCN(CCNS(=O)(=O)C(C)C)C4)C3)cnc12 (single isomer, unassigned)	UniProtKB P51679	100 to 500 nM
C[C@H](c1ccc(Cl)cc1Cl)n1nc(C#N)c2ncc(N3CC([C@H]4CCCN(CCCC(N)=O)C4)C3)nc21 (single isomer, unassigned)	UniProtKB P51679	< 100 nM
Cc1nn([C@H](C)c2ccc(Cl)cc2Cl)c2nc(N3CC(C4CCCN(CCO)C4)C3)ncc12 (mixture of isomers)	UniProtKB P51679	< 100 nM
Cc1nn([C@H](C)c2ccc(Cl)cc2Cl)c2nc(N3CC([C@H]4CCCN(CCC(N)=O)C4)C3)cnc12 (single isomer, unassigned)	UniProtKB P51679	< 100 nM
C[C@H](c1ccc(Cl)cc1Cl)n1nc(C#N)c2ncc(N3CC(C4CCCN(CCS(C)(=O)=O)C4)C3)nc21 (mixture of isomers)	UniProtKB P51679	< 100 nM

q: Provide value of IC50 for this record tested with UniProtKB P51679: Cc1nn([C@H](C)c2ccc(Cl)cc2Cl)c2nc(N3CC([C@H]4CCCN(CCNS(C)(=O)=O)C4)C3)cnc12 (single isomer, unassigned)
a: < 100 nM

q: Provide value of IC50 for this record tested with UniProtKB P51679: C[C@H](c1ccc(Cl)cc1Cl)n1nc(C(F)(F)F)c2ncc(N3CC(C4CCCN(CCCS(C)(=O)=O)C4)C3)nc21 (mixture of isomers)
a: < 100 nM

q: Provide value of IC50 for this record tested with UniProtKB P51679: C[C@H](c1ccc(Cl)cc1Cl)n1nc(C#N)c2ncc(N3CC([C@@H]4CCCN(CC(C)(C)O)C4)C3)nc21 (single isomer, unassigned)
a: < 100 nM

q: Provide value of IC50 for this record tested with UniProtKB P51679: CC(C)C(=O)NCCN1CCCC(C2CN(c3cnc4c(C(F)(F)F)nn([C@H](C)c5ccc(Cl)cc5Cl)c4n3)C2)C1 (mixture of isomers)
a: < 100 nM

q: Provide value of IC50 for this record tested with UniProtKB P51679: CC(O)CN1CCCC(C2CN(c3cnc4c(C#N)nn([C@H](C)c5ccc(Cl)cc5Cl)c4n3)C2)C1 (mixture of isomers)
a: < 100 nM

q: Provide value of IC50 for this record tested with UniProtKB P51679: CC(O)CN1CCC[C@@H](C2CN(c3cnc4c(C#N)nn([C@H](C)c5ccc(Cl)cc5Cl)c4n3)C2)C1 (single isomer, unassigned) [Example 31]
a: < 100 nM

q: Provide value of IC50 for this record tested with UniProtKB P51679: CC(O)CN1CCC[C@@H](C2CN(c3cnc4c(C#N)nn([C@H](C)c5ccc(Cl)cc5Cl)c4n3)C2)C1 (single isomer, unassigned) [Example 30]
a: < 100 nM
